Exercise: for every item that follows, state its recorded pEC50.
# TEST TARGET: human RXFP1 (Homo sapiens, UniProt Q9HBX9)
# Sequence (Q9HBX9 whole entry): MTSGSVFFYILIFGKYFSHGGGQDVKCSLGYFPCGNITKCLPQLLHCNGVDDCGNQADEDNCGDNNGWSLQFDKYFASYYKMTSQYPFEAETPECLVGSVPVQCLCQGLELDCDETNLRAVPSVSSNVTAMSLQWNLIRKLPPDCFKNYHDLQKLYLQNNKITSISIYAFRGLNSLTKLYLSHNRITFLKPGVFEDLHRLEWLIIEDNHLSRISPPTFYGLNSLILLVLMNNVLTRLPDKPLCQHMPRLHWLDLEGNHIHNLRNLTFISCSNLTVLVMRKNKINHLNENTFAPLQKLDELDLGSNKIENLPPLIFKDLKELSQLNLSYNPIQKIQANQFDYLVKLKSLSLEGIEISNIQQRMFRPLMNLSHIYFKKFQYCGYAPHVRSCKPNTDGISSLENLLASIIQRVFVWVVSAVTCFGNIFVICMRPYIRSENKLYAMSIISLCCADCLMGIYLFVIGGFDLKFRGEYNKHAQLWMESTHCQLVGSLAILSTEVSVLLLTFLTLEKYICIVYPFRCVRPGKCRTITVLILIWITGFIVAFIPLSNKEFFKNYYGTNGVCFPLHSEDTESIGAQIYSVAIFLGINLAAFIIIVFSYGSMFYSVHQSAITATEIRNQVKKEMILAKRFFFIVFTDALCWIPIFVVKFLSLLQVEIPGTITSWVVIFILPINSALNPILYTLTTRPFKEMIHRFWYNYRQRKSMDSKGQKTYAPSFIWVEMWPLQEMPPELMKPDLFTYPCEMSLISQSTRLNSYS
# PROCEDURE TEXT: hRXFP1 HEK293 cAMP assay (HTRF)
# CONDITION SET: HEK293 cells stably expressing human RXFP1, 30 min at room temperature
# Procedure: RXFP1 Cyclic Adenosine Monophosphate (cAMP) Assays. […] Cells were dissociated and suspended in assay buffer. The assay buffer was HBSS buffer (with calcium and magnesium) containing 20 mM HEPES, 0.05% BSA, and 0.5 mM IBMX. […] The level of intracellular cAMP was determined using the HTRF HiRange cAMP assay reagent kit (Cisbio) according to manufacturer's instructions. […]
Answers are plain numbers, as −log10 of the molar value.

MOLECULE	TEST TARGET	pEC50
COc1ccc(CCCO)cc1C(=O)N[C@@H]1C2CCC(/C2=C/C2CC2)[C@@H]1C(=O)Nc1ccc(F)c(C(F)(F)F)c1 (stereo partly drawn) [Example 91]	human RXFP1 (Homo sapiens, UniProt Q9HBX9)	7.15

Dear reader, for each entry below, please note its pEC50.
1. COc1ccc(CC[C@@H](C)O)cc1C(=O)N[C@@H]1C2CCC(/C2=C/C(F)(F)F)[C@@H]1C(=O)Nc1ccc(F)c(C(F)(F)F)c1 (stereo partly drawn) [Example 93]
2. COc1ccc(CCC(=O)N2CCC(O)CC2)cc1C(=O)N[C@H]1[C@@H](C(=O)Nc2ccc(F)c(C(F)(F)F)c2)[C@H]2CC[C@@H]1/C2=C\C(F)(F)F [Example 320]

Outgoing:
6.61
7.09
